settings: in 1,2-dichloroethane, 313.45 K
Parameter: solubility (mole fraction)

1) O=P1(C(Nc2ccccc2)c2ccccc2)OCC2(CO1)COP(=O)(C(Nc1ccccc1)c1ccccc1)OC2 (stereo unspecified)
0.00019

====

settings: in acetic acid, 303.65 K
Parameter: solubility (mole fraction)

1. O=P1(C(Nc2ccccc2)c2ccccc2)OCC2(CO1)COP(=O)(C(Nc1ccccc1)c1ccccc1)OC2 (stereo unspecified)
0.000156

====

settings: in acetonitrile, 298.25 K
Parameter: solubility (mole fraction)

1. O=P1(C(Nc2ccccc2)c2ccccc2)OCC2(CO1)COP(=O)(C(Nc1ccccc1)c1ccccc1)OC2 (stereo unspecified)
5.5e-05

====

conditions: in dichloromethane, 298.25 K
Parameter: solubility (mole fraction)

1. O=P1(C(Nc2ccccc2)c2ccccc2)OCC2(CO1)COP(=O)(C(Nc1ccccc1)c1ccccc1)OC2 (stereo unspecified)
0.000308

====

details: in toluene, 288.25 K
Parameter: solubility (mole fraction)

1. O=P1(C(Nc2ccccc2)c2ccccc2)OCC2(CO1)COP(=O)(C(Nc1ccccc1)c1ccccc1)OC2 (stereo unspecified)
0.00117

====

conditions: in 1,4-dioxane, 293.25 K
Parameter: solubility (mole fraction)

1) O=P1(C(Nc2ccccc2)c2ccccc2)OCC2(CO1)COP(=O)(C(Nc1ccccc1)c1ccccc1)OC2 (stereo unspecified)
0.0001

====

conditions: in isopropanol, 338.5 K
Parameter: solubility (mole fraction)

1) O=P1(C(Nc2ccccc2)c2ccccc2)OCC2(CO1)COP(=O)(C(Nc1ccccc1)c1ccccc1)OC2 (stereo unspecified)
0.000414

====

conditions: in dichloromethane, 308.15 K
Parameter: solubility (mole fraction)

1. O=P1(C(Nc2ccccc2)c2ccccc2)OCC2(CO1)COP(=O)(C(Nc1ccccc1)c1ccccc1)OC2 (stereo unspecified)
0.000388

====

conditions: in dichloromethane, 313.25 K
Parameter: solubility (mole fraction)

1) O=P1(C(Nc2ccccc2)c2ccccc2)OCC2(CO1)COP(=O)(C(Nc1ccccc1)c1ccccc1)OC2 (stereo unspecified)
0.000423

====

details: in toluene, 308.15 K
Parameter: solubility (mole fraction)

1) O=P1(C(Nc2ccccc2)c2ccccc2)OCC2(CO1)COP(=O)(C(Nc1ccccc1)c1ccccc1)OC2 (stereo unspecified)
0.00287

====

settings: in ethanol, 328.25 K
Parameter: solubility (mole fraction)

1. O=P1(C(Nc2ccccc2)c2ccccc2)OCC2(CO1)COP(=O)(C(Nc1ccccc1)c1ccccc1)OC2 (stereo unspecified)
0.0002

====

settings: in 1,2-dichloroethane, 338.15 K
Parameter: solubility (mole fraction)

1) O=P1(C(Nc2ccccc2)c2ccccc2)OCC2(CO1)COP(=O)(C(Nc1ccccc1)c1ccccc1)OC2 (stereo unspecified)
0.000271

====

details: in diethyl ether, 303.25 K
Parameter: solubility (mole fraction)

1) O=P1(C(Nc2ccccc2)c2ccccc2)OCC2(CO1)COP(=O)(C(Nc1ccccc1)c1ccccc1)OC2 (stereo unspecified)
0.000299

====

conditions: in ethanol, 288.25 K
Parameter: solubility (mole fraction)

1) O=P1(C(Nc2ccccc2)c2ccccc2)OCC2(CO1)COP(=O)(C(Nc1ccccc1)c1ccccc1)OC2 (stereo unspecified)
4e-05

====

details: in acetonitrile, 333.15 K
Parameter: solubility (mole fraction)

1) O=P1(C(Nc2ccccc2)c2ccccc2)OCC2(CO1)COP(=O)(C(Nc1ccccc1)c1ccccc1)OC2 (stereo unspecified)
0.000169

====

conditions: in benzene, 328.25 K
Parameter: solubility (mole fraction)

1) O=P1(C(Nc2ccccc2)c2ccccc2)OCC2(CO1)COP(=O)(C(Nc1ccccc1)c1ccccc1)OC2 (stereo unspecified)
0.000218
